This listing pairs molecules with measured pIC50.
Molecular target: thromboxane A2 receptors (TPα) of human platelets (Homo sapiens)
Construct: endogenous in cells; host or cells: human platelets
Sequence (P21731 whole entry): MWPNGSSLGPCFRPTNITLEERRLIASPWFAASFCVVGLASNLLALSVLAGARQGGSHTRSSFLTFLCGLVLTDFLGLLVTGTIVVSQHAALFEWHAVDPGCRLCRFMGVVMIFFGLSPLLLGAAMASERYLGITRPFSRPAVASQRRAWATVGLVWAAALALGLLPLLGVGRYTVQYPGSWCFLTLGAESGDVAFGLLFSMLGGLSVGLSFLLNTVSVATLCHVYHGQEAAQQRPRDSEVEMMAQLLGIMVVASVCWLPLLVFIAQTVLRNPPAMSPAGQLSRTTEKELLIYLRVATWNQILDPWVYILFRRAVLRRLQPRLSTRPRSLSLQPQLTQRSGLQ
Assay: Binding test: displacement of [3H]SQ-29.548 from human platelet thromboxane A2 receptors
pIC50: −log10 of the molar value.
parameter: pIC50

>>> df
                           smiles_structure  reported_measurement
0  Cc1cc(C)cc(Nc2ccc([N+](=O)[O-])cc2S(=O)(=O)NC(=O)NC(C)C)c1                  7.79
1  CC(C)(C)NC(=O)NS(=O)(=O)c1cc([N+](=O)[O-])ccc1NC1CCCCC1                  8.11
2  O=C(NC1CCCCC1)NS(=O)(=O)c1cc([N+](=O)[O-])ccc1NC1CCCCC1                  7.64
3  O=[N+]([O-])c1ccc(NC2CCCCCC2)c(S(=O)(=O)NC(=S)NC2CCCCC2)c1                  7.57
4  Cc1cccc(C)c1Nc1ccc([N+](=O)[O-])cc1S(=O)(=O)NC(=O)NC(C)C                  8.48
5  CCCCCNC(=O)NS(=O)(=O)c1cc([N+](=O)[O-])ccc1Nc1ccc(C)cc1                  8.84
6  C[C@@H](Nc1ccc([N+](=O)[O-])cc1S(=O)(=O)NC(=O)NC(C)(C)C)c1ccccc1                  8.62
7  CCCCCNC(=O)NS(=O)(=O)c1cc([N+](=O)[O-])ccc1Nc1c(C)cc(C)cc1C                  8.79
